From: the supplement of paper PMC10567573

B1: PBXIP1 (parent)
chain: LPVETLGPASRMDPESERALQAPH

# Variants of: B1
# Procedure details: protein stability index of a GFP-peptide fusion (GPS, HEK-293T) (PSI 1-6); higher = more stable;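 also: lentivirally expressed fusions sorted by FACS into six bins by GFP to DsRed ratio, PSI derived from sequencing read proportions per bin multiplied by bin number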
# Stated conditions: c terminus: a fixed tail appended
Exercise: state measured protein stability index for each of the variants provided.
I only need the number, thanks.

Query string: Reported protein stability index, variant D13M : ____
Result string: 4.11

Query string: Reported protein stability index, variant P23Q : ____
Result string: 4.06

Query string: Reported protein stability index, variant L6G : ____
Result string: 4.71

Query string: Reported protein stability index, variant E17I : ____
Result string: 3.1

Query string: Reported protein stability index, variant S10N : ____
Result string: 5.01

Query string: Reported protein stability index, variant E17H : ____
Result string: 3.92

Query string: Reported protein stability index, variant A22D : ____
Result string: 4.7

Query string: Reported protein stability index, variant D13K : ____
Result string: 3.98

Query string: Reported protein stability index, variant T5W : ____
Result string: 4.65

Query string: Reported protein stability index, variant S10G : ____
Result string: 4.47

Query string: Reported protein stability index, variant P8E : ____
Result string: 5.52

Query string: Reported protein stability index, variant R18K : ____
Result string: 4.6

Query string: Reported protein stability index, variant A19H : ____
Result string: 4.31

Query string: Reported protein stability index, variant P2M : ____
Result string: 3.04

Query string: Reported protein stability index, variant V3M : ____
Result string: 4.74

Query string: Reported protein stability index, variant P14C : ____
Result string: 4.13

Query string: Reported protein stability index, variant A9E : ____
Result string: 4.56

Query string: Reported protein stability index, variant L20H : ____
Result string: 4.27

Query string: Reported protein stability index, variant T5P : ____
Result string: 4.95

Query string: Reported protein stability index, variant A19K : ____
Result string: 4.32

Query string: Reported protein stability index, variant A19Q : ____
Result string: 4.46

Query string: Reported protein stability index, variant R11N : ____
Result string: 4.4
